Biological target: T1, human Tom70 (residues 108–608) (human, UniProt O94826 108-608)
T1 chain: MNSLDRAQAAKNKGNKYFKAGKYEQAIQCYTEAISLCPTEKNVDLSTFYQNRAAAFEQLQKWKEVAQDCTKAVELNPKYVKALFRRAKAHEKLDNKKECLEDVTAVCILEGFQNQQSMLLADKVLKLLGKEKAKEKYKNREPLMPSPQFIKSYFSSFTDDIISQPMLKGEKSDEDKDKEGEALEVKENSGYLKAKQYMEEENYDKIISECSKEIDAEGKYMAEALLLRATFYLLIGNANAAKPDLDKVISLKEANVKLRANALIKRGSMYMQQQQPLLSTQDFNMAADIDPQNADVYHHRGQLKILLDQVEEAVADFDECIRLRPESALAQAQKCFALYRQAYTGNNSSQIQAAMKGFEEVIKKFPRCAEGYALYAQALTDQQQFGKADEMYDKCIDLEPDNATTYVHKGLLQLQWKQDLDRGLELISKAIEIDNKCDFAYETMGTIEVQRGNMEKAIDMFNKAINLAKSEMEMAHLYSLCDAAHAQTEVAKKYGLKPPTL
Assay: ITC
Where no end group is shown, it is not given here.
valueKind: Kd (µM)

- binder: "YDTSRMEEVD-OH [Hsp90_(EEVD) peptide]"
  measured: 12
